Each recorded value in this set is attributed to patent US20120316071A1.

Hi there, I'd appreciate the recorded Signal/Blank for every entry that follows.
biological target: T1, Recombinant Human DLL4 (R&D Systems Cat#1506-D4/CF) (human, UniProt Q9NR61 27-524); assay: ECL multispot (MSD) binding assay, DLL4 signal over blank spot; Fab concentration not given
T1 construct: Bought recombinant protein; also called delta-like protein 4; rHuman DLL4
Lab note: record the figure alone, no unit after it.

For this binder ( Fab VH1-46_IGHD6-6*01_IGHJ1*01 S102A/S103P/S104F/H111F (APFF) & L6_IGKJ1*01 S28R (Fab, V domains shown, Fab expressed in E. coli: VH joined to CH1 (Plasmid A, His6 and Flag tags), VL joined to kappa CL (Plasmid C); also called APFF S28R) VH: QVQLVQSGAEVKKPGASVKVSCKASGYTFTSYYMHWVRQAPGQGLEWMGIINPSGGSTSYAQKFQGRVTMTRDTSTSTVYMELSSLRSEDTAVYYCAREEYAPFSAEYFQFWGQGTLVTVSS VL: EIVLTQSPATLSLSPGERATLSCRASQRVSSYLAWYQQKPGQAPRLLIYDASNRATGIPARFSGSGSGTDFTLTISSLEPEDFAVYYCQQRSNWPPWTFGQGTKVEIKR ), measured Signal/Blank is 246

So, Fab VH1-46_IGHD6-6*01_IGHJ1*01 S102A/S103P/S104F/H111F (APFF) & L6_IGKJ1*01 S30T (Fab, V domains shown, Fab expressed in E. coli: VH joined to CH1 (Plasmid A, His6 and Flag tags), VL joined to kappa CL (Plasmid C); also called APFF S30T) VH: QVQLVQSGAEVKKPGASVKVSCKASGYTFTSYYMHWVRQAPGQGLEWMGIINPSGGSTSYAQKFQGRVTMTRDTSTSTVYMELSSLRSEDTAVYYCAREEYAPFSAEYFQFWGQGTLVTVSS VL: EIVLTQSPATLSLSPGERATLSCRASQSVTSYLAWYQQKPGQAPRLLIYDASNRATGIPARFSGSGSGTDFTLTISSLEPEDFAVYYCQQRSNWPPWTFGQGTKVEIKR ? Its Signal/Blank was 300

Measured Signal/Blank, Fab VH1-46_IGHD6-6*01_IGHJ1*01 S102A/S103P/S104F/H111F (APFF) & L6_IGKJ1*01 S28L (Fab, V domains shown, Fab expressed in E. coli: VH joined to CH1 (Plasmid A, His6 and Flag tags), VL joined to kappa CL (Plasmid C); also called APFF S28L) VH: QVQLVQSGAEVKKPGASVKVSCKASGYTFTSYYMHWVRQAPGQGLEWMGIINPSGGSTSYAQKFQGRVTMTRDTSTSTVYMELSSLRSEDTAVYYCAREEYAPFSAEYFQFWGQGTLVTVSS VL: EIVLTQSPATLSLSPGERATLSCRASQLVSSYLAWYQQKPGQAPRLLIYDASNRATGIPARFSGSGSGTDFTLTISSLEPEDFAVYYCQQRSNWPPWTFGQGTKVEIKR : 220

Lab book: Signal/Blank of Fab VH1-46_IGHD6-6*01_IGHJ1*01 S102A/S103P/S104F/H111F (APFF) & L6_IGKJ1*01 S30D (Fab, V domains shown, Fab expressed in E. coli: VH joined to CH1 (Plasmid A, His6 and Flag tags), VL joined to kappa CL (Plasmid C); also called APFF S30D) VH: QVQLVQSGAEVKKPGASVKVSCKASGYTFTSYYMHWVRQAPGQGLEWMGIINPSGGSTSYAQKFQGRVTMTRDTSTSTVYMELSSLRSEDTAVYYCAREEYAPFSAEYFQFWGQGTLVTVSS VL: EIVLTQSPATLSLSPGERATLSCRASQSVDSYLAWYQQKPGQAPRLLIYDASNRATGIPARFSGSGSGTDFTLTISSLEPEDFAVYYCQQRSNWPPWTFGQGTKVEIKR noted as 568

Form: binder = Fab VH1-46_IGHD6-6*01_IGHJ1*01 S102A/S103P/S104F/H111F (APFF) & L6_IGKJ1*01 S30A (Fab, V domains shown, Fab expressed in E. coli: VH joined to CH1 (Plasmid A, His6 and Flag tags), VL joined to kappa CL (Plasmid C); also called APFF S30A) VH: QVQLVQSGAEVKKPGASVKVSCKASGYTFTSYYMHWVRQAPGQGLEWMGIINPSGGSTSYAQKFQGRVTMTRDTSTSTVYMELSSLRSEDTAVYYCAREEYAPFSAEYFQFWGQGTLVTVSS VL: EIVLTQSPATLSLSPGERATLSCRASQSVASYLAWYQQKPGQAPRLLIYDASNRATGIPARFSGSGSGTDFTLTISSLEPEDFAVYYCQQRSNWPPWTFGQGTKVEIKR ; Signal/Blank = 516

Per the records, this binder ( Fab VH1-46_IGHD6-6*01_IGHJ1*01 S102A/S103P/S104F/H111F (APFF) & L6_IGKJ1*01 S28E (Fab, V domains shown, Fab expressed in E. coli: VH joined to CH1 (Plasmid A, His6 and Flag tags), VL joined to kappa CL (Plasmid C); also called APFF S28E) VH: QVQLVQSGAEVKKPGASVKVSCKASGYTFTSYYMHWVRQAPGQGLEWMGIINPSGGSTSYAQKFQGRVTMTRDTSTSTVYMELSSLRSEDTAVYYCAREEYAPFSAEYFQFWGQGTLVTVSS VL: EIVLTQSPATLSLSPGERATLSCRASQEVSSYLAWYQQKPGQAPRLLIYDASNRATGIPARFSGSGSGTDFTLTISSLEPEDFAVYYCQQRSNWPPWTFGQGTKVEIKR ) has Signal/Blank equal to 439
